List of remaining at 4 h, 10 ug/mL values.
# method-notes: Metabolic stability in Sprague-Dawley rat plasma at 10 ug/mL after 240 mins by HPLC
# Type: ADME, cell-free
# study-conditions: read-out: Stability
Just the number in %, nothing appended.

The following compounds have reported results that may help.
INSERT INTO assay_data (chemical_structure, measured_metric, data_value) VALUES
  ('C=C(C)[C@]12C[C@@H](C)[C@@]34O[C@](Cc5ccccc5)(O[C@@H]1[C@@H]3C=C(COC(=O)Cc1ccc(O)c(OC)c1)C[C@]1(O)C(=O)C(C)=C[C@@H]41)O2', 'remaining at 4 h, 10 ug/mL', 71.7),
  ('C=C(C)[C@@]12C[C@@H](C)[C@@]34OC(Cc5ccccc5)(O[C@@H]1[C@@H]3C=C(COC(=O)Cc1ccc(NS(C)(=O)=O)c(OC)c1)C[C@]1(O)C(=O)C(C)=C[C@@H]41)O2', 'remaining at 4 h, 10 ug/mL', 90.8);

Enquiry: Can you look up the measured remaining at 4 h, 10 ug/mL of `C=C(C)[C@@]12C[C@@H](C)[C@@]34OC(Cc5ccccc5)(O[C@@H]1[C@@H]3C=C(COC(=O)Cc1ccc(F)cc1F)C[C@]1(O)C(=O)C(C)=C[C@@H]41)O2` for me?
Return: 88.3
